Source listed as patent EP4786492A1.

Recorded MFI, one value per entry.
- Assay target: DLL3 endogenously expressed on NCI-H82 cells (UniProt Q9NYJ7)
- Sequence (Q9NYJ7 27-618): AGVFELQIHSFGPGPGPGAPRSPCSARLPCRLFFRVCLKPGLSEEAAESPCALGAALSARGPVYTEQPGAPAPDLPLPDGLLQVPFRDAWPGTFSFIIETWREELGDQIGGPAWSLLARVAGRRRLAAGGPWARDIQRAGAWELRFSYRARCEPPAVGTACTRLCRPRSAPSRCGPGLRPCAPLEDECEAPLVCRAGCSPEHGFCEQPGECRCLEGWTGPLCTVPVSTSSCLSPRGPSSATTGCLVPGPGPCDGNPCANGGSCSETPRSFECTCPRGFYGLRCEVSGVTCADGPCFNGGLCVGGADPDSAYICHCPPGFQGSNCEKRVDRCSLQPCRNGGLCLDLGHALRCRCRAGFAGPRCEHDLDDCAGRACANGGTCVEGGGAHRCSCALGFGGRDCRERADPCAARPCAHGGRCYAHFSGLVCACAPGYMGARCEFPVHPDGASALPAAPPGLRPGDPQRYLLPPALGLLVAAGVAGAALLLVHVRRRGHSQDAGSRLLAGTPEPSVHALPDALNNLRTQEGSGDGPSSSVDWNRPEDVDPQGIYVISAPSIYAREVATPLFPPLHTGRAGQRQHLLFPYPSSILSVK
- Run description: FACS on NCI-H82 cells; antibody 0.032 nM
Just the number.

Hab015VL4VH1b-hFc (scFv, part only; not given: VL-VH linker and human IgG1 Fc, V domains shown, not shown: another chain or arm of the molecule; a dimerising Fc or GST; small tags and cut ends) VL: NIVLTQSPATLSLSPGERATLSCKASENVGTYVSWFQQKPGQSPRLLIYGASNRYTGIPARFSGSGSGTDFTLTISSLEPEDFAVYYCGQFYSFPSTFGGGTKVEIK VH: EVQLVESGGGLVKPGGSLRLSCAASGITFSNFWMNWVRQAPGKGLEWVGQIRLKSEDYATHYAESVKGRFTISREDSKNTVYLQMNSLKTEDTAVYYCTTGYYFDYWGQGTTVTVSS: 218

Query binder follows.
Complete the entry with MFI for Hab009VL2aVH1-hFc (Fc fusion, part only; not given: Linker and human IgG1 Fc, not shown: a dimerising Fc or GST) chain, part: DIVMTQSPLSLPVTPGEPASISCRASQTISDYLHWYLQKPGQSPRLLIKYASQSISGVPDRFSGSGSGTDFTLKISRVEAEDVGVYYCQQGHSFPLTFGQGTKLEIKEVQLVQSGAEVKKPGASVKVSCKASGYTFTSYWMHWVRQAPGQRLEWMGTIYPGNSDTRYNQKFKDRVTITADTSASTAYMELSSLRSEDTAVYYCTRSYDYGDLDYWGQGTTVTVSS
377
